Provenance of the data: the supplement of paper PMC12494721

# System: Clostridium sporogenes DSM 1664
# PROTOCOL NOTES: growth (OD595) fold change vs plate DMSO controls (fold change (ratio)); higher = more growth
# REPORTED CONDITIONS: incubation time: 27 h, anaerobic, 37 °C
Structures can show the parent of a compound that is named as a salt.
Parameter threshold = 1. Response is met when growth meets or exceeds it, else not met.

MOLECULE | ASSIGNED LABEL
CCCc1nn(C)c2c(=O)[nH]c(-c3cc(S(=O)(=O)N4CCN(C)CC4)ccc3OCC)nc12 [Sildenafil] (20 µM) | met
Cn1cc(C(=O)Nc2ccccc2-c2cc(F)c(F)c(F)c2)c(C(F)F)n1 (20 µM) | met
CC(=O)Nc1c(I)c(C(=O)N[C@H]2C(O)O[C@H](CO)[C@@H](O)[C@@H]2O)c(I)c(N(C)C(C)=O)c1I (stereo partly specified) [Metrizamide] (20 µM) | met
N=C(N)NS(=O)(=O)c1ccc(N)cc1 [Sulfaguanidine] (20 µM) | not met
CN[C@H](CC(C)C)C(=O)N[C@H]1C(=O)N[C@@H](CC(N)=O)C(=O)N[C@H]2C(=O)N[C@H]3C(=O)N[C@H](C(=O)N[C@H](C(=O)O)c4cc(O)cc(O)c4-c4cc3ccc4O)[C@H](O)c3ccc(c(Cl)c3)Oc3cc2cc(c3O[C@@H]2O[C@H](CO)[C@@H](O)[C@H](O)[C@H]2O[C@H]2C[C@](C)(N)[C@H](O)[C@H](C)O2)Oc2ccc(cc2Cl)[C@H]1O [Vancomycin hydrochloride] (20 µM) | not met
COc1c(N2CCNC(C)C2)c(F)cc2c(=O)c(C(=O)O)cn(C3CC3)c12 (stereo unspecified) [Gatifloxacin] (20 µM) | not met
